experiment: solubility of topiramate in de-ionized water and aqueous surfactant solutions; type: physicochemical; details: de-ionized water, 37 °C, water, thermodynamic from solid; read-out: solubility in de-ionized water
property.name: solubility

>>> result("CC1(C)O[C@@H]2[C@@H](CO[C@@]3(COS(N)(=O)=O)OC(C)(C)O[C@@H]23)O1 [topiramate]")
"~12 mg/mL"

---

assay: solubility of topiramate in de-ionized water and aqueous surfactant solutions; format: physicochemical; conditions: de-ionized water without surfactant, water, thermodynamic from solid; 37° C.; read-out: solubility in de-ionized water without surfactant (control)
property.name: solubility

>>> result("CC1(C)O[C@@H]2[C@@H](CO[C@@]3(COS(N)(=O)=O)OC(C)(C)O[C@@H]23)O1 [topiramate]")
"13 mg/mL"

---

assay: solubility of topiramate in de-ionized water and aqueous surfactant solutions; format: physicochemical; details: water, thermodynamic from solid; neat drug, stated range; read-out: solubility of neat topiramate
property.name: solubility

>>> result("CC1(C)O[C@@H]2[C@@H](CO[C@@]3(COS(N)(=O)=O)OC(C)(C)O[C@@H]23)O1 [topiramate]")
"9.8 to 13 mg/mL"
